measured-on: PfCDPK4 (Plasmodium falciparum (isolate 3D7), UniProt Q8IBS5)
measurement-notes: biochemical
experimental-conditions: read-out: PfCDPK4 (% inhibition @ 3 uM)
endpoint: inhibition at 3 µM (%)
Output spec: scalar in %, unitless text.

So for Nc1ncnc2c1c(-c1ccc3oc(-c4ccccc4)nc3c1)nn2CC1CCNCC1 [Compound 120] , the logged inhibition at 3 µM turned out to be 90

So for CCOc1ccc2cc(-c3nc(C(C)C)n4ccnc(N)c34)ccc2c1 [Compound 10] , the logged inhibition at 3 µM turned out to be 94

So for Nc1ncnc2c1c(-c1ccc(-c3nn(CC4CCNCC4)c4ncnc(N)c34)cc1)nn2CC1CCNCC1 [Compound 101] , the logged inhibition at 3 µM turned out to be 14

So for CS(=O)(=O)N1CCC(n2nc(Cc3cccc4ccccc34)c3c(N)ncnc32)CC1 [Compound 5p] , the logged inhibition at 3 µM turned out to be 53

So for CC(C)n1nc(-c2ccc3cc(OCc4ccccc4Cl)ccc3c2)c2c(N)ncnc21 [Compound 46] , the logged inhibition at 3 µM turned out to be 52

So for CC(Oc1ccc2cc(-c3nn(C(C)C)c4ncnc(N)c34)ccc2c1)c1ccccc1 (stereo not drawn) [Compound 53] , the logged inhibition at 3 µM turned out to be 57

So for Cc1ccc(C(F)(F)F)cc1COc1ccc2cc(-c3nn(C(C)C)c4ncnc(N)c34)ccc2c1 [Compound 50] , the logged inhibition at 3 µM turned out to be 26

So for Cc1cc(-c2nn(C(C)(C)C)c3ncnc(N)c23)ccc1-c1ccccc1 [Compound 133] , the logged inhibition at 3 µM turned out to be 26

So for CCCCOc1ccc2cc(-c3nn(CC4CCNCC4)c4ncnc(N)c34)ccc2c1 [Compound 35] , the logged inhibition at 3 µM turned out to be 99

----------
measured-on: PfCDPK4 (Plasmodium falciparum (isolate 3D7))
measurement-notes: biochemical
experimental-conditions: read-out: PfCDPK4 (% inhibition @ 3 uM)
Mark Condition not met for inhibition at 3 µM values under 50%, and Condition met for everything at or above.

IN: Given NC(=O)Cn1nc(Cc2cccc3ccccc23)c2c(N)ncnc21 , state whether its inhibition at 3 µM is at least 50%.
OUT: Condition not met

IN: Given CC(C)n1nc(Cc2cccc3ccccc23)c2c(N)ncnc21 , state whether its inhibition at 3 µM is at least 50%.
OUT: Condition met

IN: Given Nc1ncnc2c1c(-c1ccc3ncccc3c1)nn2CC1CCNCC1 , state whether its inhibition at 3 µM is at least 50%.
OUT: Condition met

IN: Given Cc1cccc2[nH]c(-c3nn(C(C)C)c4ncnc(N)c34)cc12 , state whether its inhibition at 3 µM is at least 50%.
OUT: Condition met

IN: Given Cn1ccc2cc(-c3nc(C(C)(C)C)n4ccnc(N)c34)ccc21 , state whether its inhibition at 3 µM is at least 50%.
OUT: Condition met

IN: Given CC(C)n1nc(-c2cccc(-c3ccccc3)c2)c2c(N)ncnc21 , state whether its inhibition at 3 µM is at least 50%.
OUT: Condition not met

IN: Given CC(C)CC(=O)Nc1ccc(-c2nn(C(C)(C)C)c3ncnc(N)c23)cc1 , state whether its inhibition at 3 µM is at least 50%.
OUT: Condition met

IN: Given Cc1cccc(-c2nn(C(C)(C)C)c3ncnc(N)c23)c1 , state whether its inhibition at 3 µM is at least 50%.
OUT: Condition met

IN: Given CC(C)n1nc(-c2cccc3ccccc23)c2c(N)ncnc21 , state whether its inhibition at 3 µM is at least 50%.
OUT: Condition met

IN: Given Nc1ncnc2c1c(Cc1cccc3ccccc13)nn2C1CCCC1 , state whether its inhibition at 3 µM is at least 50%.
OUT: Condition not met

IN: Given C#CCn1nc(Cc2cccc3ccccc23)c2c(N)ncnc21 , state whether its inhibition at 3 µM is at least 50%.
OUT: Condition not met

IN: Given O=C(NCCC1CCNCC1)Nc1nc2ccc(C(=O)c3ccccc3)cc2[nH]1 , state whether its inhibition at 3 µM is at least 50%.
OUT: Condition met

IN: Given CCOc1ccc2cc(-c3nn(C(C)(C)C)c4ncnc(N)c34)ccc2c1 , state whether its inhibition at 3 µM is at least 50%.
OUT: Condition met

IN: Given COC(=O)Nc1nc2ccc(C(O)c3ccccc3)cc2[nH]1 (centres unmarked) , state whether its inhibition at 3 µM is at least 50%.
OUT: Condition not met

IN: Given CC(C)n1nc(-c2cnc3ccccc3c2)c2c(N)ncnc21 , state whether its inhibition at 3 µM is at least 50%.
OUT: Condition met

IN: Given CC(C)c1cccc(-c2nn(C(C)C)c3ncnc(N)c23)c1 , state whether its inhibition at 3 µM is at least 50%.
OUT: Condition met

IN: Given O=C(CCCC1CCNCC1)Nc1nc2ccc(C(=O)c3ccccc3)cc2[nH]1 , state whether its inhibition at 3 µM is at least 50%.
OUT: Condition met

IN: Given COc1cc(COc2cccc(-c3nn(C(C)C)c4ncnc(N)c34)c2)cc(OC)c1 , state whether its inhibition at 3 µM is at least 50%.
OUT: Condition not met

IN: Given CC(C)n1nc(-c2ccc(Cl)cc2)c2c(N)ncnc21 , state whether its inhibition at 3 µM is at least 50%.
OUT: Condition met

IN: Given Nc1ncnc2c1c(-c1ccc3cc(OCc4ccc(Cl)cc4)ccc3c1)nn2CC1CCNCC1 , state whether its inhibition at 3 µM is at least 50%.
OUT: Condition met

IN: Given Nc1ncnc2c1c(-c1ccc(Cl)cc1)nn2CC1CCNCC1 , state whether its inhibition at 3 µM is at least 50%.
OUT: Condition met

IN: Given CC(C)COc1ccc2cc(-c3nn(CC4CCN(C)CC4)c4ncnc(N)c34)ccc2c1 , state whether its inhibition at 3 µM is at least 50%.
OUT: Condition met

IN: Given CC(C)n1nc(-c2ccc3c(c2)CCCO3)c2c(N)ncnc21 , state whether its inhibition at 3 µM is at least 50%.
OUT: Condition met

IN: Given Cc1cc(-c2nn(C(C)C)c3ncnc(N)c23)ccc1F , state whether its inhibition at 3 µM is at least 50%.
OUT: Condition met

IN: Given Cn1ccc2cc(-c3nn(CC4CCNCC4)c4ncnc(N)c34)ccc21 , state whether its inhibition at 3 µM is at least 50%.
OUT: Condition met

----------
measured-on: PfCDPK1 (Plasmodium falciparum (isolate 3D7), UniProt P62344)
measurement-notes: biochemical
experimental-conditions: read-out: PfCDPK1 (% inhibition @ 3 uM)
Mark False for inhibition at 3 µM values under 90%, and True for everything at or above.

IN: Given CC(=O)N1CCC(CCn2nc(Cc3cccc4ccccc34)c3c(N)ncnc32)CC1 [Compound 5l] , state whether its inhibition at 3 µM is at least 90%.
OUT: False

IN: Given CC(C)COc1ccc2cc(-c3nn(C(C)(C)C)c4ncnc(N)c34)ccc2c1 [Compound 130] , state whether its inhibition at 3 µM is at least 90%.
OUT: True

IN: Given Nc1nc2ccc(C(=O)c3ccccc3)cc2[nH]1 [Compound 92] , state whether its inhibition at 3 µM is at least 90%.
OUT: False

IN: Given Cn1ccc2cc(-c3nc(C(C)(C)C)n4ccnc(N)c34)ccc21 [Compound 70] , state whether its inhibition at 3 µM is at least 90%.
OUT: True

IN: Given CC(C)n1nc(-c2cccc(Cl)c2)c2c(N)ncnc21 [Compound 7b] , state whether its inhibition at 3 µM is at least 90%.
OUT: False

IN: Given COc1ccc(-c2nn(C(C)C)c3ncnc(N)c23)cc1OC [Compound 7k] , state whether its inhibition at 3 µM is at least 90%.
OUT: True

IN: Given CC(C)(C)n1nc(-c2ccc3ncccc3c2)c2c(N)ncnc21 [Compound 143] , state whether its inhibition at 3 µM is at least 90%.
OUT: True

IN: Given Nc1ncnc2c1c(-c1ccc(-c3nn(CC4CCNCC4)c4ncnc(N)c34)cc1)nn2CC1CCNCC1 [Compound 101] , state whether its inhibition at 3 µM is at least 90%.
OUT: False

IN: Given COc1ccc(-c2nn(C(C)(C)C)c3ncnc(N)c23)cc1C [Compound 132] , state whether its inhibition at 3 µM is at least 90%.
OUT: True

IN: Given CC(C)n1nc(-c2ccc3cc(OCc4ccc(CC(F)(F)F)c(Cl)c4)ccc3c2)c2c(N)ncnc21 [Compound 51] , state whether its inhibition at 3 µM is at least 90%.
OUT: False

IN: Given Nc1ncnc2c1c(-c1cnc3ccccc3c1)nn2CC1CCNCC1 [Compound 30] , state whether its inhibition at 3 µM is at least 90%.
OUT: False

IN: Given N[C@@H](Cc1c[nH]cn1)C(=O)Nc1nc2ccc(C(=O)c3ccccc3)cc2[nH]1 [Compound 111] , state whether its inhibition at 3 µM is at least 90%.
OUT: False

IN: Given CC(C)n1nc(-c2cccc(-c3ccccc3)c2)c2c(N)ncnc21 [Compound 7z] , state whether its inhibition at 3 µM is at least 90%.
OUT: False

IN: Given COc1ccc(-c2nn(CC3CCNCC3)c3ncnc(N)c23)cc1C [Compound 144] , state whether its inhibition at 3 µM is at least 90%.
OUT: True

IN: Given Cn1ncc2cc(-c3nn(CC4CCNCC4)c4ncnc(N)c34)ccc21 [Compound 121] , state whether its inhibition at 3 µM is at least 90%.
OUT: True

IN: Given O=C(NCCC1CCNCC1)Nc1nc2ccc(C(=O)c3ccccc3)cc2[nH]1 [Compound 126] , state whether its inhibition at 3 µM is at least 90%.
OUT: False

IN: Given O=C(c1ccccc1)c1ccc2nc(NC(=O)[C@@H]3CCCN3)[nH]c2c1 [Compound 107] , state whether its inhibition at 3 µM is at least 90%.
OUT: False

IN: Given CCN1CCC(Cn2nc(Cc3cccc4ccccc34)c3c(N)ncnc32)CC1 [Compound 5n] , state whether its inhibition at 3 µM is at least 90%.
OUT: False

IN: Given Nc1ncnc2c1c(-c1ccc(-c3ccccc3)c(F)c1)nn2CC1CCNCC1 [Compound 73] , state whether its inhibition at 3 µM is at least 90%.
OUT: False

IN: Given CS(=O)(=O)N1CCC(Cn2nc(Cc3cccc4ccccc34)c3c(N)ncnc32)CC1 [Compound 5q] , state whether its inhibition at 3 µM is at least 90%.
OUT: False

IN: Given CC(C)(C)n1ncc2c(N)ncnc21 [Compound 123] , state whether its inhibition at 3 µM is at least 90%.
OUT: False

IN: Given CC(C)n1nc(-c2ccc(Cl)cc2)c2c(N)ncnc21 [Compound 7a] , state whether its inhibition at 3 µM is at least 90%.
OUT: True

IN: Given CC(C)(C)OC(=O)NCCC(=O)Nc1nc2ccc(C(=O)c3ccccc3)cc2[nH]1 [Compound 93] , state whether its inhibition at 3 µM is at least 90%.
OUT: False

These entries and their values trace back to patent US11247972B2.
